Provide the reported TERMINAL_BW of each item.
organism: Rattus norvegicus; assay: Open TG-GATES - Regimen: Daily Repeat; format: toxicity, organism-based, Sprague-Dawley; parameters: regimen Daily Repeat, gender Male, age 6 weeks; details: in vivo, po, 0 mg/kg, 72 h, route gavage, dose level Control, time 3 day
The reply should be a number in g, with the unit left off.

Ask: So what's the measured TERMINAL_BW for this one? `CC(C)(S)[C@@H](N)C(=O)O`
Reply: 235.9

Ask: So what's the measured TERMINAL_BW for this one? CCN1CCCC1CNC(=O)c1cc(S(N)(=O)=O)ccc1OC (stereo unspecified) [SULPIRIDE]
Reply: 237.8

Ask: So what's the measured TERMINAL_BW for this one? `O=C(O)c1cccnc1`
Reply: 241.1

Ask: So what's the measured TERMINAL_BW for this one? CC(=N)S [THIOACETAMIDE]
Reply: 229.8

Ask: So what's the measured TERMINAL_BW for this one? `C[C@]12CCC(=O)C=C1CC[C@@H]1[C@@H]2CC[C@@]2(C)[C@H]1CC[C@]2(C)O`
Reply: 237.3

Ask: So what's the measured TERMINAL_BW for this one? `CN1C(=O)OC(C)(C)C1=O`
Reply: 243.9

Ask: So what's the measured TERMINAL_BW for this one? `CC(=O)Oc1cc(C(C)C)c(OCCN(C)C)cc1C`
Reply: 216.7

Ask: So what's the measured TERMINAL_BW for this one? `C[C@](N)(Cc1ccc(O)c(O)c1)C(=O)O`
Reply: 207.1

Ask: So what's the measured TERMINAL_BW for this one? `Nc1nc(N)c2nc(-c3ccccc3)c(N)nc2n1`
Reply: 242.6

Ask: So what's the measured TERMINAL_BW for this one? `O=C(N[C@H](CO)[C@H](O)c1ccc([N+](=O)[O-])cc1)C(Cl)Cl`
Reply: 250.4

Ask: So what's the measured TERMINAL_BW for this one? CC(C)C(=O)Nc1ccc([N+](=O)[O-])c(C(F)(F)F)c1 [FLUTAMIDE]
Reply: 224.3

Ask: So what's the measured TERMINAL_BW for this one? `CCC(C)(C)C(=O)O[C@H]1C[C@@H](C)C=C2C=C[C@H](C)[C@H](CC[C@@H]3C[C@@H](O)CC(=O)O3)[C@H]21`
Reply: 222.3

Ask: So what's the measured TERMINAL_BW for this one? `CCSCC[C@H](N)C(=O)O`
Reply: 234.6

Ask: So what's the measured TERMINAL_BW for this one? `CCc1oc2ccccc2c1C(=O)c1cc(I)c(O)c(I)c1`
Reply: 239.1

Ask: So what's the measured TERMINAL_BW for this one? `C#C[C@]1(O)CC[C@H]2[C@@H]3CCc4cc(O)ccc4[C@H]3CC[C@@]21C`
Reply: 222.5

Ask: So what's the measured TERMINAL_BW for this one? `Oc1ncnc2[nH]ncc12`
Reply: 244.3
